Provenance of the data: paper PMC4973850

Biological target: VEGF (human recombinant VEGFA165); VEGF‐induced VEGFR‐2 activation in HUVECs (Homo sapiens)
Construct: purchased R&D Systems, Abingdon, UK
Test: Inhibition of VEGF‐induced VEGFR‐2 phosphorylation in HUVECs after pre‐incubating VEGF with polyphenol (Phospho‐VEGFR‐2 Tyr1175 ELISA)
Format: cell-based
Settings: at 50 μM polyphenol; HUVECs
EXPERIMENTAL ENDPOINT: Inhibition (%)

1. OC[C@H]1O[C@@H](Oc2cc(O)cc(/C=C/c3ccc(O)cc3)c2)[C@H](O)[C@@H](O)[C@@H]1O = 28
2. O=C1c2ccc(O)cc2O[C@H](c2cc(O)c(O)c(O)c2)[C@H]1O [(+)‐Dihydrorobinetin] = 66
3. O=C1C[C@@H](c2ccc(O)c(O)c2)Oc2cc(O)cc(O)c21 = 20

I: O=c1c(O)c(-c2ccccc2)oc2cc(O)cc(O)c12
II: O=C(O)c1cc(O)c(O)c(O)c1
III: O=c1c(-c2ccc(O)cc2)coc2cc(O)cc(O)c12
Endpoint returns the given compounds ordered by ascending Inhibition (%). Please list the labels in the order you were asked to rank them.
III, II, I
(III: 22%, II: 32%, I: 85%)

====

Molecular target: VEGF (human recombinant VEGFA165); VEGF‐induced VEGFR‐2 activation in HUVECs (Homo sapiens)
Construct: purchased R&D Systems, Abingdon, UK
Assay: Inhibition of VEGF‐induced VEGFR‐2 phosphorylation in HUVECs after pre‐incubating VEGF with polyphenol (Phospho‐VEGFR‐2 Tyr1175 ELISA)
Format: cell-based
Settings: VEGF 25 ng/mL pre‐incubated 5 min with polyphenol, then HUVECs 5 min; phospho‐VEGFR‐2 ELISA; 95% confidence intervals in parentheses
Measured IC50 (μM) by item

1. O=c1c(O)c(-c2cc(O)c(O)c(O)c2)oc2cc(O)cc(O)c12 [Myricetin] = 0.121(0.102–0.144) μM

If you can, please state the reported IC50 (μM) value of O=C(O[C@@H]1Cc2c(O)cc(O)cc2O[C@@H]1c1ccc(O)c(O)c1)c1cc(O)c(O)c(O)c1 [ECG, epicatechin gallate] .
0.16 (0.150–0.183) μM

Ok, now Oc1cc(O)c2c(c1)O[C@H](c1ccc(O)c(O)c1)[C@@H](O)C2 [(+)‐Catechin]
214.7 (178. 2–258.7) μM

Record: O=c1c(O)c(-c2ccc(O)cc2O)oc2cc(O)cc(O)c12 [Morin]
1.482 (1.357–1.618) μM

Proceed to O=c1cc(-c2ccc(O)c(O)c2)oc2cc(O)cc(O)c12 [Luteolin]
7.46 (6.592–8.446) μM

Then O=c1c(O)c(-c2ccc(O)cc2)oc2cc(O)cc(O)c12 [Kaempferol] ?
9.341 (7.749–11.26) μM

====

Biological target: VEGF (human recombinant VEGFA165); VEGF‐induced VEGFR‐2 activation in HUVECs (Homo sapiens, UniProt P15692)
Construct: purchased R&D Systems, Abingdon, UK
Sequence (P15692 1-191 isoform P15692-4): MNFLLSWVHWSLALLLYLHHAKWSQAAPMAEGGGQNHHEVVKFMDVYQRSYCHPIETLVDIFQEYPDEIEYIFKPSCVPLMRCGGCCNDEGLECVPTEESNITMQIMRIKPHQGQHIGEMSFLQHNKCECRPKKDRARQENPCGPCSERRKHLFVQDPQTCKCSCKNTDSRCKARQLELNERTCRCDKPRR
Assay: Inhibition of VEGF‐induced VEGFR‐2 phosphorylation in HUVECs after pre‐incubating VEGF with polyphenol (Phospho‐VEGFR‐2 Tyr1175 ELISA)
Type: cell-based
Conditions: at 50 μM polyphenol; HUVECs
EXPERIMENTAL ENDPOINT: Inhibition (%)

Example entries begin here.
1. O=C(/C=C/c1ccc(O)c(O)c1)O[C@@H]1C[C@](O)(C(=O)O)C[C@@H](O)[C@H]1O = Ineffective
2. C[C@@H]1O[C@@H](Oc2c(-c3ccc(O)c(O)c3)oc3cc(O)cc(O)c3c2=O)[C@H](O)[C@H](O)[C@H]1O = Ineffective
3. O=C(CCc1ccc(O)cc1)c1c(O)cc(O)cc1O[C@@H]1O[C@H](CO)[C@@H](O)[C@H](O)[C@H]1O = Ineffective
4. O=c1c(O[C@@H]2O[C@H](CO)[C@H](O)[C@H](O)[C@H]2O)c(-c2ccc(O)c(O)c2)oc2cc(O)cc(O)c12 [Hyperoside] = Ineffective

For C[C@@H]1O[C@@H](OC[C@H]2O[C@@H](Oc3c(-c4ccc(O)c(O)c4)oc4cc(O)cc(O)c4c3=O)[C@H](O)[C@@H](O)[C@@H]2O)[C@H](O)[C@H](O)[C@H]1O , what is its reported Inhibition (%)?
Ineffective

How about O=C(O)/C=C/c1ccc(O)c(O)c1 ?
Ineffective

Do the same for O=c1c(O[C@@H]2O[C@H](CO)[C@@H](O)[C@H](O)[C@H]2O)c(-c2ccc(O)c(O)c2)oc2cc(O)cc(O)c12 please
Ineffective

====

Target: VEGF (human recombinant VEGFA165); VEGF‐induced VEGFR‐2 activation in HUVECs (Homo sapiens, UniProt P15692)
Construct: purchased R&D Systems, Abingdon, UK
Assay: Inhibition of VEGF‐induced VEGFR‐2 phosphorylation in HUVECs after pre‐incubating VEGF with polyphenol (Phospho‐VEGFR‐2 Tyr1175 ELISA);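 further: sandwich ELISA of VEGFR-2 phosphorylated at Tyr1175 in lysates of confluent HUVECs, with VEGF alone and DMSO vehicle (≤0.1%) as control incubations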
Type: cell-based
Conditions: VEGF 25 ng/mL pre‐incubated 5 min with polyphenol, then HUVECs 5 min; phospho‐VEGFR‐2 ELISA; 95% confidence intervals in parentheses
EXPERIMENTAL ENDPOINT: IC50 (μM)

1. O=c1c(O)c(-c2ccc(O)c(O)c2)oc2cc(O)cc(O)c12 [Quercetin] = 0.754 (0.674–0.842) μM
2. Oc1cc(O)c2cc(O)c(-c3ccc(O)c(O)c3)[o+]c2c1 [Cyanidin] = 1.053 (0.764–1.453) μM
3. COc1cc(-c2oc3cc(O)cc(O)c3c(=O)c2O)ccc1O [Isorhamnetin] = 9.053 (7.676–10.68) μM

Pending molecule:
Which measured IC50 (μM) value corresponds to O=c1c(O)c(-c2ccc(O)c(O)c2)oc2cc(O)c(O)c(O)c12 [Quercetagetin] ?
0.096 (0.083–0.109) μM
